Test system: PPARg:RXRa IVT, anti-PPARg (NR concentration 270 nM, RXRa partner concentration 90 nM)
Experiment: PBM binding z-score (relative to random genomic background probes); higher = stronger binding; sequences stand for … in GC…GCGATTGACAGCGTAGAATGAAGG

{"constructSequence": "TCGAGTAGGTAAGTCGGGGCATTCAGCCAACATA", "PBM binding z-score": 0.805}
{"constructSequence": "AATACAGGGTCACTAGGCCAGCGTAGGTACGAAT", "PBM binding z-score": 5.63}
{"constructSequence": "ATATGTAGGTTAAGGGACATTCAGGTTGGTTCGC", "PBM binding z-score": 6.99}
{"constructSequence": "ACAGACAGGTGAGTGAAGGTAACTAAGCTGGACG", "PBM binding z-score": 0.719}
{"constructSequence": "TCATATAGGTAAACAGGTGAAAGTCCGTAAGTTA", "PBM binding z-score": 4.6}
{"constructSequence": "CCTTACGGGTCAAGGTTCTAGCACGGGTGGTACG", "PBM binding z-score": 3.25}
{"constructSequence": "CCTACTTGGCCAAAAAGGTCATTGATGCCGATAA", "PBM binding z-score": 1.98}
{"constructSequence": "CCTCGGAGGACAACAGGAGGTCAGAGCCGCCAGA", "PBM binding z-score": 0.369}
{"constructSequence": "CCGACTGAGGCATAAGGTTACCATAAGCCAGCCC", "PBM binding z-score": -0.451}
{"constructSequence": "TCTAGTTGGTCACGGAGGTGACACACGACGGGTA", "PBM binding z-score": 3.37}
{"constructSequence": "TCGAGTAGGTTAGTGGGGGCATTCAGCCAACATA", "PBM binding z-score": 4.33}
{"constructSequence": "ACTAGTAGTTGAGACGAGGGCAACCGATAGGTTG", "PBM binding z-score": 0.386}
{"constructSequence": "CCGACTGGTGCAAGGTTACCATAACGCACAGCCA", "PBM binding z-score": -0.0659}
{"constructSequence": "TCTATTAGTTGATTAGTGCAACCGAAACAGCGGA", "PBM binding z-score": 0.352}
{"constructSequence": "CCTTACGGGTCACTCCACGTTATAGCATCGGAGT", "PBM binding z-score": 3.09}
{"constructSequence": "GCTCGTAGGACAAGGTCAGAGCTTTGTCCGTAGA", "PBM binding z-score": 1.08}
{"constructSequence": "TAGCCTAGGTCATTGGCCCAGTATAGTACGCATC", "PBM binding z-score": 3.13}
{"constructSequence": "GCTAGTTGCTCAGTAAAAGGTCACACACCGGTCG", "PBM binding z-score": 1.7}
{"constructSequence": "ATCCCTAGGTAACAAGTTCAGTGAAAGAGAGGAC", "PBM binding z-score": 0.638}
{"constructSequence": "ATATGTAGGTTACATCCGGGTCAGTCAGGCTATG", "PBM binding z-score": 7.34}
{"constructSequence": "GCTCGGACGACAAGGTCAGAGCTTTGTCCGTAGA", "PBM binding z-score": -0.175}
{"constructSequence": "AGTCAAAGTTCACTATGTAACGTAAGATTCAGCT", "PBM binding z-score": 2.39}
{"constructSequence": "TCTAGCAGACCAGAGGGTCACTCAAGAGGTACGG", "PBM binding z-score": -0.0326}
{"constructSequence": "GCTTACGGGTCAAAGGTTATAGCCTGAATAGAAT", "PBM binding z-score": 6.32}
{"constructSequence": "CCTTACGGGTCAATCCAGGTTATAGCATCGGAGT", "PBM binding z-score": 3.6}
{"constructSequence": "CTCGAAAGGACGTGCTCAGGTGAGTATACCAAAC", "PBM binding z-score": -0.388}

====

System: PPARa:RXRa (NR concentration 270 nM, RXRa partner concentration 90 nM)
Test: PBM binding z-score (relative to random genomic background probes); higher = stronger binding; sequences stand for … in GC…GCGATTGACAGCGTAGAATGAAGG
# PBM binding z-score values compiled below
measure: PBM binding z-score

{"constructSequence": "GCTAGTTGGTCAGTAAAAGGTCATACACCGGTCG", "reportedValue": 4.45}
{"constructSequence": "CAAGCTAGGTCACGAAAGGTCAAAGTCGAATGAC", "reportedValue": 6.5}
{"constructSequence": "CGTACTGGGCCAAAAAGGTCATTGATGCCGATAA", "reportedValue": 4.69}
{"constructSequence": "ACAGACAGGTGATGAAGGTAACTCTGGCTATCAT", "reportedValue": -0.229}
{"constructSequence": "TCTGCTAGGACAACGATGGTCAGCTAATCTGCTA", "reportedValue": -0.569}
{"constructSequence": "CCTGCTAGGTCATGGTAAGCTAATCTACAGTATG", "reportedValue": 3.64}
{"constructSequence": "CATTACGGGTCACTCCAGGTTATAGCATCGGAGT", "reportedValue": 4.96}
{"constructSequence": "GCTAGCAGGCAATTTGGGTCACTCAATGACGGGC", "reportedValue": 2.23}
{"constructSequence": "AGAACGAGGGCAATGAGTTGATAGCCCGGGTGGC", "reportedValue": 1.34}
{"constructSequence": "TTACCAAGGTGAAAGGTAGTTGATGCACGCCTTG", "reportedValue": 2.7}
{"constructSequence": "ATCTCTAGGTAAAGATAGTTCAGTGATTGCAAAT", "reportedValue": 0.72}
{"constructSequence": "ATATGTAGGTTATCGGGTCATGCAGTTTGCGCAT", "reportedValue": 4.99}

====

System: PPARa:RXRa (NR concentration 270 nM, RXRa partner concentration 90 nM)
Assay: PBM binding z-score (relative to random genomic background probes); higher = stronger binding; sequences stand for … in GC…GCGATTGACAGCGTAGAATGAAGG
Label t for high-side PBM binding z-score (at or above 2) and f for low-side PBM binding z-score (below it).

{"constructSequence": "AGGCAAAGTTCAGGACGAGGTAACGTAAAGCACG", "groupLabel": "t"}
{"constructSequence": "CCGACTGGGGAAAGGTTACCATAACGCACAGCCA", "groupLabel": "t"}
{"constructSequence": "CTGACTGGGGCAAAGGTTACCATACTCAGTACGA", "groupLabel": "t"}
{"constructSequence": "CAAACCAGGTCAAGGTCAAAGTCGGTTTGTGCCA", "groupLabel": "t"}
{"constructSequence": "CCGACTGGGGCATAAGGTTACCTTAAGCCAGCCC", "groupLabel": "f"}
{"constructSequence": "TCGAGTAGGTTAGTAGGGGCATTCAGCCAACATA", "groupLabel": "f"}
{"constructSequence": "TCGGACAGGTGAAGGTAACTCAGGTACGCAGTCG", "groupLabel": "f"}
{"constructSequence": "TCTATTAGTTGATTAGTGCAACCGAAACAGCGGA", "groupLabel": "f"}
{"constructSequence": "TAGGCTAGGTCATGGGCCAGTATACCACGCGAAC", "groupLabel": "t"}
{"constructSequence": "CGTCAAAGTTCAACTAAGGTAACCTAAAGCACGC", "groupLabel": "t"}
{"constructSequence": "CCTTACGGGACACGAGGTTATAGCACGACGAGCG", "groupLabel": "f"}
{"constructSequence": "GCTATTAGTTGAAAGGGCAACCGAATGATTCTCG", "groupLabel": "t"}

====

System: RXRa homodimer (NR concentration 180 nM)
Test: PBM binding z-score (relative to random genomic background probes); higher = stronger binding; sequences stand for … in GC…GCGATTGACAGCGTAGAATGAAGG
Label True for high-side PBM binding z-score (at or above 2) and False for low-side PBM binding z-score (below it).

{"constructSequence": "TCGTGTAGGTTAGGGGCATTCAGAATGGCGTCGA", "groupLabel": "False"}
{"constructSequence": "GCTCGGAGGACAAGGTCAGAGGTTTGTCCGTAGA", "groupLabel": "True"}
{"constructSequence": "TCGAGTAGTTTAGTCGGGGCATTCAGCCAACATA", "groupLabel": "False"}
{"constructSequence": "TCTCGGAGGACACGAATGGTCAGAGCTCGACATC", "groupLabel": "False"}
{"constructSequence": "TTATATAGGTAAAGGTGAAAGTCGAACGATATGA", "groupLabel": "True"}
{"constructSequence": "GGAACGAGGGCATTCAAGTTGATAGCATGGCGAT", "groupLabel": "False"}
{"constructSequence": "TCAGACAGGTGAAGGTAACTCAAGTACGCAGTCG", "groupLabel": "False"}
{"constructSequence": "GCTGCTAGGTCAAATGATGGTCAGCTAAAGCTCG", "groupLabel": "True"}
{"constructSequence": "TAGCCTACGTCATTCAGGGGCCAGTATAGAAAGC", "groupLabel": "False"}
{"constructSequence": "TAGCCTAGGTCAAATCGGGCCAGTATACGCTATA", "groupLabel": "True"}
{"constructSequence": "TGACAAAGTTCAAAGGTAACGTAAGTATCCACAC", "groupLabel": "True"}
{"constructSequence": "TCATATAGGTAAATGTTAGGTGAAAGTCCGATCT", "groupLabel": "False"}
{"constructSequence": "CCTATCAGTTGACCATAAGGGCAACCGAAGCTCG", "groupLabel": "False"}
{"constructSequence": "CCTCGGAGGACAACAGGAGGTCAGGGCTGCCAGA", "groupLabel": "True"}
{"constructSequence": "AATACAGGGTCACTCGGCCAGAGTAGGTACGAAT", "groupLabel": "True"}
{"constructSequence": "CGAACTAGGTCAAGGACAGTGACTCTCCGCACGC", "groupLabel": "True"}
{"constructSequence": "ACAGACAGTTGATGAAGGTAACTCAGGCTATCAT", "groupLabel": "False"}
{"constructSequence": "ATCTTTAGGTAAAAGTTCAGTGAATCCCGAGGAT", "groupLabel": "False"}
{"constructSequence": "CCTAGTTGGTTAAGGTCACACACGCTATAGGTAC", "groupLabel": "True"}
{"constructSequence": "GCTTACGGGTCGAAGGTTATAGCATGAATAGAAT", "groupLabel": "True"}
{"constructSequence": "TAGCCTAGGTCAGATCGGGCCTGTATACGCTATA", "groupLabel": "False"}
{"constructSequence": "ATATGTACGTTAAGGGTCATTCAGGTTGGTTCGC", "groupLabel": "True"}
{"constructSequence": "CCAGACAGGTGAAAGGCAACTCAGTCTGGTACGC", "groupLabel": "False"}
{"constructSequence": "CCTCGGAGGACAGAGGGTCAGAGCTGTCCGCTTT", "groupLabel": "False"}
{"constructSequence": "CAAACTAAGTCAAGAGGTCAAAGTCCGCTTCCCG", "groupLabel": "True"}
